System: L1210 leukemia ip in BDF1 mice, survival T/C
measurement_protocol: NCI In Vivo Anticancer Drug Screen. Data for tumor model L1210 Leukemia (intraperitoneal) in B6D2F1 (BDF1) mice
experimental_context: endpoint: mean survival time; dose: 200.0 mg/kg/injection; schedule: Q01DX001 (ip); vehicle: other; higher = longer survival
Toxic doses and inconclusive results are not listed.
Assignment: determine reported T/C for the given compounds.

| compound | T/C |
| --- | --- |
| CC(=O)O[C@H]1[C@H]2O[C@]23[C@@H]2CC[C@]4(O)C[C@@H](O)CC[C@]4(C)[C@H]2CC[C@]3(C)[C@H]1c1ccc(=O)oc1 | 92 % of control |
| CCOC(=O)C1C(O)CC2COC(=O)C2C1c1ccc(OC(C)=O)cc1 (stereo not given) | 95 % of control |
| O=C(CCCC(=O)N/N=C/c1ccc(O)c(O)c1)N/N=C\c1ccc(O)c(O)c1 | 98 % of control |
| C/C=C/C(O)(C(=O)OCC)C1CCCCC1 (stereo not given) | 98 % of control |

Would you mind telling me what T/C value was observed for `CNC(=O)c1cc(/C=C/c2c[nH]c3ccccc23)c[n+](C)c1` ?
100 % of control
